Data provenance: patent EP3270157B1

target: T1R2/T1R3 receptor (Homo sapiens, UniProt Q7RTX0+Q8TE23); conditions: Clone #1057 cells, % (w/v), Fig. 6
Sequence (Q8TE23 20-839): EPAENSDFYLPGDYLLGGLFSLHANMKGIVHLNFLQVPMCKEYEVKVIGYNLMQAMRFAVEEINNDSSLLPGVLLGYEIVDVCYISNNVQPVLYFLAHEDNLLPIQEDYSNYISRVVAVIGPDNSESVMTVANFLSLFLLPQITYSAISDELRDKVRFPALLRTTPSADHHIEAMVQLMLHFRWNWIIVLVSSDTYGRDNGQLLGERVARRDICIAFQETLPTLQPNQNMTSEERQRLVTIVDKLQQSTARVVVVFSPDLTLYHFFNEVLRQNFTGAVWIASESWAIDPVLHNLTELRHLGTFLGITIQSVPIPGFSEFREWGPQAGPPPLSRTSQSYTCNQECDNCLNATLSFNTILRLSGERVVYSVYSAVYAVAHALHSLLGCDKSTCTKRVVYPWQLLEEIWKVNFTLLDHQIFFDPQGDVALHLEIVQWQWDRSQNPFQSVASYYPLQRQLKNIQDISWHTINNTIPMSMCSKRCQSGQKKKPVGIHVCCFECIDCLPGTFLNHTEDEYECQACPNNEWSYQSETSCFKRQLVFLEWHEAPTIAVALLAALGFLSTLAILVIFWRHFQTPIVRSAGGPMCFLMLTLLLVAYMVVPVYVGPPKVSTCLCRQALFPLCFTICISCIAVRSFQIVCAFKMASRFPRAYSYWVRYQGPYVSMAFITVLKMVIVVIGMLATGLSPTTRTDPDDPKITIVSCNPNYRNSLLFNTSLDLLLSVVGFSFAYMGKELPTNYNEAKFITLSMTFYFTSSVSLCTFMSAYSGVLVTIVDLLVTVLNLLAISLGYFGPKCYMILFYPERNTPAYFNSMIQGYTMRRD
Sequence (Q7RTX0 21-852): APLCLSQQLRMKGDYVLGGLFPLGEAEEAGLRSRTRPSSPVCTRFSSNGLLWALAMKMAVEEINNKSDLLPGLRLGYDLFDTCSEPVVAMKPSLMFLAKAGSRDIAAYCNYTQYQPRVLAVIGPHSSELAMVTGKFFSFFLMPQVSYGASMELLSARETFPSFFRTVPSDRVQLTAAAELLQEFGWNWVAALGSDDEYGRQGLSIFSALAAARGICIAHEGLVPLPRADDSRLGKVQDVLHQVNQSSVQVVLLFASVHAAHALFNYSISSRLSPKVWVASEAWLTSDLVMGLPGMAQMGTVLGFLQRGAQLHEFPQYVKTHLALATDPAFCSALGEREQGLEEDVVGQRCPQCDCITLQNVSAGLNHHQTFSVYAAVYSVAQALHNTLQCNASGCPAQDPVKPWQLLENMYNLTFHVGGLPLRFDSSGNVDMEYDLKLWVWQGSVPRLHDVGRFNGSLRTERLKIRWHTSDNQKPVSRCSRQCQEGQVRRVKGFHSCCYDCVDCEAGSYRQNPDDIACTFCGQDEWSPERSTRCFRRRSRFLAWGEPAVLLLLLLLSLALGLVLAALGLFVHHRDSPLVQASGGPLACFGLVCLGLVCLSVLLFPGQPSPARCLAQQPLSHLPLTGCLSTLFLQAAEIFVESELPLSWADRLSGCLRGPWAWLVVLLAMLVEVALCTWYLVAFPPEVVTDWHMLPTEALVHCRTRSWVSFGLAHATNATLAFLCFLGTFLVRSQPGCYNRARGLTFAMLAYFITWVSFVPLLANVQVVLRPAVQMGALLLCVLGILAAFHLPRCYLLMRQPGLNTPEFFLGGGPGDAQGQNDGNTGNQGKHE
Measure: concentration at which the maximum response (ΔF/Fmax) was reached (%)
One number for each entry, in %.

Recorded concentration at which the maximum response (ΔF/Fmax) was reached, per entry:
Given smiles: OC[C@H]1O[C@H](O[C@H]2[C@H](O)[C@@H](O)[C@H](O)O[C@@H]2CO)[C@H](O)[C@@H](O)[C@@H]1O
Value measured: 16.5
//
Given smiles: OC[C@H]1O[C@H](O[C@]2(CCl)O[C@H](CCl)[C@@H](O)[C@@H]2O)[C@H](O)[C@@H](O)[C@H]1Cl
Value measured: 15
//
Given smiles: O=C(CO)[C@@H](O)[C@H](O)[C@H](O)CO
Value measured: 9

Give measured concentration at which the maximum response (ΔF/Fmax) was reached for every item shown.
1. OC[C@@H](O)[C@@H](O)[C@H](O)[C@H](O)CO
2. OC[C@@H](O)[C@@H](O[C@H]1O[C@H](CO)[C@@H](O)[C@H](O)[C@H]1O)[C@H](O)[C@@H](O)CO

Key:
1: 7.7; 2: 17.0
